# assay: Half life in rat liver microsomes at 100 uM after 5 to 180 mins by HPLC-UV analysis
# Format: ADME

compound	half-life at 100 µM (min)
C[C@]12CC[C@H]3[C@@H](CCC4=CC(=O)CC[C@@]43C)[C@@H]1CC[C@@H]2O	2.1
COc1cc2c(cc1OC)C(=O)C(CC1CCN(Cc3ccccc3)CC1)C2 (stereo not drawn)	73.3
Oc1c(I)cc(Cl)c2cccnc12	34.8
